Tested on: LXRa homodimer (NR concentration 270 nM)
method-summary: PBM binding z-score (relative to random genomic background probes); higher = stronger binding; sequences stand for … in GC…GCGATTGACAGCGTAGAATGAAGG
Classify by measured PBM binding z-score: Criterion met if it is equal to or exceeds 0.5, Criterion not met if it is smaller.

Assess whether reported PBM binding z-score for "CCTATTGGGCCATTCAGAGGTCATTGATCATATG" sits at 0.5 or higher.
Criterion met

Say whether "ATCCCTAGGTAAAGTTCAGTGAAAGATCGATAGA" shows PBM binding z-score of 0.5 or more.
Criterion met

====

Tested on: LXRb homodimer (NR concentration 270 nM)
method-summary: PBM binding z-score (relative to random genomic background probes); higher = stronger binding; sequences stand for … in GC…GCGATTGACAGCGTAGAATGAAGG
// class assignment uses PBM binding z-score with these ranges: one: < -0.3; two: ≥ -0.3 and < 0.2; three: ≥ 0.2

Sample answers from the record:
CGTCCATGGTCAAGGTCAGTGAAAGAGACTCGAA	two
CCGAGTAGGTTATGGGTCATTCAGGCAACGGTGA	three
GCGTACGGGTCAAAGGTTATAGCATGAATAGAAT	two

Which category does the recorded PBM binding z-score put "ATCTCTAGGTGACAAGTTCAGTGAAAGAGAGGAC" in?
two

Classify this sequence: "CGAATGAGGGCATGAGTTGATAGCAAATGCCGAT"
one

Hello team, could you let me know which band the following sequence falls into: "ATCTCTAGGTAAGACTCAGATCAGTGAAGAACGC"
three

Class label required: "ACTATTAGTTGACTTAGGGCAACCCATACGACGC"
three

Category of "AGTCAAAGTCCATCTAGGTAACGTAAGATATGCT" :
two

Band assignment needed for "ATCCCTAGGTAAAGATAGTTCAGTGAATGCAAAT" please.
two

Could you place "TCATATTGGTAAACAGGTGAAAGTCCGTAAGTTA" in its proper category? Many thanks.
three

Class label required: "GTACCAAGCTGAATAGGTCGTTGATGAGTAGGCG"
one

Please classify: "TCTTGTAGATCAATAGAGATTAAGAAAGTGCGCT"
two

Sort "CGTCAAATTTCAAGGTAACGTAACAGAAAGCAGC" into one of the categories.
two

Which bin should I file "CGGACTAGGTCAAGGACAGTGAATCTCCGCACGC" under?
one

Quick check: band for "TCTCGGAGGACACGAAAGGTCGGAGCTCGACATC"
one

In plain terms, what class is "TCTTGTAGATAAATAGAGGTTAAGAAAGTGCGCT" ?
three

The entry to classify is "CCTTTCGGGTCACTCCAGGTTATAGCATCGGAGT" ; which class holds it?
three

Lab note: which band did "TCATGTAGGTAAATGCTAGGTGAAAGTCCGATCT" land in?
two

Record "TCTTGTAAATCAAAGGTTAAGAAAGCCGAAGCCT" — which class?
three

Lab note: which band did "AGAACGAGGGCACGCTGAGTTGATAGAAGAGTAG" land in?
one

Lab note: which band did "TAGCCTAGGTCATGGGCGAGTATACCACGCGAAC" land in?
one

Please report the category associated with "TCTTGTAGATCAGCAGGTTAAGAAGGCTGGCCAA" , nothing else.
one

Tag the class for "CCGAGTAGGTTATAGGGCATTCAGGCAACGGTGA"
two

Any idea which band "CCTGCTAGGTCTTGGTCAGCTAATCTACAGTATG" is in?
one

Could you place "CGTCCAAGGTCAGAGAGGTCAGTTAATGCCGAGT" in its proper category? Many thanks.
three

# bin label for "CGAACTAGGTCAGAACAGGAAAGTGAAGGATGAT"
two

====

Consider the following sequences; for each one, report its PBM binding z-score.
Test system: PPARg homodimer (NR concentration 180 nM)
method-summary: PBM binding z-score (relative to random genomic background probes); higher = stronger binding; sequences stand for … in GC…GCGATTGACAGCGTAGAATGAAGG
Give bare numbers.

Answer for every listed entry: what is its PBM binding z-score? The entries follow.
1. ATCTCTAGGTGAGACTCAGTTCAGTGAAGAACGC
2. GCTCGGAGGACAAGGACAGAGCTTTGTCCGTAGA
3. CCAGCTAGGTCATGGTCAGCTAATCTACAGTATG
4. CAAACTAGCTCACGAAAGGTCAAAGTCGAATGAC
5. GCTAGCTGGCCATTTGGGTCACTCAATGACGGGC
6. TCATATAGGTAAACTGGTGAAAGTCCGTAAGTTA

1. -0.0769
2. -0.588
3. 1.52
4. 3.91
5. -0.342
6. 0.515

====

System: PPARg DBDmut IVT, anti-PPARg (DBD mutation: PPARg1 K132A/R137A, NR concentration 270 nM)
method-summary: PBM binding z-score (relative to random genomic background probes); higher = stronger binding; sequences stand for … in GC…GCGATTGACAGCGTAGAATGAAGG
recorded-metric: PBM binding z-score
Answers are plain numbers.

I'm hoping you can list PBM binding z-score for every sequence here, please.
1. AATACAGAGTCACTAGGCCAGAGTAGGTACGAAT
2. TCATATAGGTAAAAGGTGACAGTCGGTGTGGTAA
3. CCACACAGGTGAGAAGGTAACTCAGCCTCGATTA
4. TCGAGTAGGTTAGTCGGGGCATTCACCCAACATA
5. CCGACTGGGGCATAAAGGTTACCATACCATCCGG
6. TCTTGTAGATCAAGCAGGTGAAGAAAGCCTGAGT
7. CGAACTAGGTCATGGACAGTGAATCTCCGCACGC

1: 0.135; 2: 1.71; 3: -0.56; 4: -0.56; 5: -1.23; 6: -0.33; 7: 1.53

List PBM binding z-score for every entry below, keeping the order given.
1. GGTGCTAGGTCAGGTTGGTCAGCTAACGGGTACG
2. CGTCCAAGGTCATAGGAGGTCGGTGAAGACAGAT
3. AGAACGAGGGCACGCTTAGTTGATAGCAGAGTAG
4. CCTAGCAGGCCAGGATCACTCAAGCATTTCGCTT
5. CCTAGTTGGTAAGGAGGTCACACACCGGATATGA
6. ACATGTAGGTTAGCTGGGGTCATTCAGACTAGGC
7. CGTCCAATGTCAAGGTCAGTGAAAGAGACTCGAA

1. -0.0479
2. 0.224
3. 0.676
4. -1.21
5. 0.468
6. 2.35
7. -0.348

Batch lookup, PBM binding z-score per entry.
1. AGGCAAAGTTCATCTAGGTAACGTAAGATATGCT
2. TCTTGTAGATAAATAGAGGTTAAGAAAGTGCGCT
3. ATCTCTAGGTAAAGATAGTTAAGTGAATGCAAAT
4. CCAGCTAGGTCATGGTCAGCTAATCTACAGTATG
5. ACAGCCAGGTGAGTGAAGGTAACTCAGCTGGACG

[0.748, 0.956, 1.6, 0.516, -0.566]

====

Test system: RARb homodimer (NR concentration 270 nM)
method-summary: PBM binding z-score (relative to random genomic background probes); higher = stronger binding; sequences stand for … in GC…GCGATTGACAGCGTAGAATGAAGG
Grouping rule (PBM binding z-score): bin A: < 0.9; bin B: ≥ 0.9 and < 3; bin C: ≥ 3

Which class holds "ACTTACGGGTCAACGAGGTTATAGGACGCGTATA" ?
bin C

Lab note: which band did "CCTACTGGGCCACGAAAGGTCATTTATTCAGTGA" land in?
bin C

Band of "CCTGCTGGGCCATTCAGAGGTCATTGATCATATG" ?
bin C

Any idea which band "AGAATGAGGTTACGATCAGGGAAACAGAATACAT" is in?
bin B

Note: place this sequence into its band. Item: "CAAACTAGGGCACCGGAAGGTCAAAGTCCGCATG"
bin C

====

Tested on: RARb homodimer (NR concentration 270 nM)
method-summary: PBM binding z-score (relative to random genomic background probes); higher = stronger binding; sequences stand for … in GC…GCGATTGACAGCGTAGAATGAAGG
recorded-metric: PBM binding z-score
Numbers only.

Known PBM binding z-score results, listed for orientation:
CAAACTAGGTCACCGCAAGGTCAAAGTCCGCATG	5.35
CGTCCAAGATCAAAGGTCAGTGAAGAGATGACGG	4.44
CAGCCCAGGTCAGGGCCAGTATAGGAGGAACGTT	2.54
CCAGACAGGTGGAAGGTAACTCAGTCTGGTACGC	0.0116
ATCTCTAGGTAAGGATAGTTCAGTGAATGCAAAT	1.05

Please give PBM binding z-score for each item listed below.
1. AAGACAGGGTCACTAGGCCAGAGTAGGTACGAAT
2. ACTAGCAGGCCAAGGGTCTCTCAAGATTAGTCCG
3. CCTAGGTGGTCAGGAGGTCACACACCGGATATGA
4. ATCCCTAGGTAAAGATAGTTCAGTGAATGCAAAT
5. TCGGCTAGGTCAACGATGGTCAGCTAATCTGCTA

3.02
-0.0592
4.34
1.19
3.12

Record PBM binding z-score for all entries; do not skip any.
1. CCTTACGTGTCACGAGGTTATAGCACGACGAGCG
2. CGAACTAGGTTATTGACAGGACAGTGAATAGTAA
3. ATATGTAGGTTATCGGGTCATTCCGTTTGCGCAT
4. CCGACTGGGACAAAGGTTACCATACTCAGTACGA
5. CGTCAAAGTTCAACAAAGGTAACGTAAAGCACGC
6. AGAATGAGGTTAATAAGATCAGGGAATTGCGGTC

1: 1.49; 2: 0.991; 3: 3.06; 4: 1.88; 5: 4.37; 6: 0.992

Hi! Can you tell me PBM binding z-score for each of these sequences?
1. CGTCAAGGTTCAACTAAGGTAACGTAAAGCACGC
2. CCTGCTAGGTCAATGGTCAGATAAAGCAGCTCGC

1. 2.36
2. 2.54

Batch request: PBM binding z-score per item, same order as input.
1. CCAGACAGGTGAGAAGGTAACTAAGCCTCGATTA
2. CGTCCAAGGTCAGAGGGGTCAGTGAATGCCGAGT

1: 0.66; 2: 5.33
